Experiment: BET inhibitor-based combinations targeting novel dependencies in MECOM-rearranged (r) AML: MV-4-11 cell line (AID 2202233); also: nearly all actives have a fitted effect of over 45% in size
Settings: MV-4-11 AML viability, CellTiter-Glo luminescence, 48 h; series mostly up to 46 µM
Results filed as inconclusive are left out. Active and inactive are the calls of the source. Calls follow the shape of the dose curve; as a rule, active = well fitted inhibition curve with a large enough effect; inconclusive = small, poorly fitted or top-dose-only effect; inactive = no such curve, though single readings can be large or run the other way.
Can you answer with just one of these options? active, inactive

* C=C1C(=O)OC2/C=C(/C)CC/C=C(/C)CCC12 (stereo not given) | active
* N#CCC1(n2cc(-c3ncnc4[nH]ccc34)cn2)CN(C2CCN(C(=O)c3ccnc(C(F)(F)F)c3F)CC2)C1 | active
* O=C([O-])C[O-].[Pt+2] | inactive

Call for entry COC(=O)Nc1nc2ccc(C(=O)c3ccccc3)cc2[nH]1 :
active

Assay result, entry COCCNCc1ccc(-c2cc3nccc(Oc4ccc(NC(=S)NC(=O)Cc5ccc(F)cc5)cc4F)c3s2)nc1 — outcome?
active
